test-protocol: RP, Phenomenex Luna Omega Polar C18, 100 × 2.1 mm, 1.6 µm, 40 °C, 0.5 mL/min, estimated dead time 0.44 min; A: water + 0.1% formic acid + 10 mM ammonium formate; B: acetonitrile; gradient (min/%B) 0/5 8/20 10/100 12/100 12.1/5 14/5
conditions: stereoisomer not certain
observation-type: LC retention time (min)

CC1CCC2(C(=O)O)CCC3(C)C(=CCC4C5(C)CCC(O)C(C)(C)C5CCC43C)C2C1C (stereo not drawn): 10.9

P. O=C(O)CNC(=O)c1ccccc1
Q. O=C(O)C=Cc1ccc(O)cc1
Qu. Between the two listed entries P and Q , which has its LC retention time at the higher number? Pick one; state its label.
Ans. Q
(Q: 5.83 min, P: 3.2 min)

###

test-protocol: Other, Phenomenex Kinetex PFP, 100 × 4.6 mm, 2.6 µm, 35 °C, 1.5 mL/min, estimated dead time 0.71 min; A: water + 0.1% trifluoroacetic acid, pH 2; B: acetonitrile + 0.1% trifluoroacetic acid, pH 2; gradient (min/%B) 0/1 7/7.5 14/7.6 17/10 18.5/12 20/12.5 24/30 25/90 25.1/1 32/1
conditions: stereoisomer not certain
observation-type: LC retention time (min)

Study these solved cases before continuing.
O=C(O)c1cc(O)cc(O)c1 [3,5-Dihydroxybenzoic acid]: 4.93
COc1ccc(C(=O)O)cc1: 20.6

a. O=C(CCc1ccc(O)cc1)c1c(O)cc(O)cc1OC1OC(CO)C(O)C(O)C1O (stereo not drawn)
b. O=Cc1ccc(O)cc1 [4-Hydroxybenzaldehyde]
c. Cc1ccc(C(=O)NCC(=O)O)cc1
d. O=C(O)c1ccc(O)c(O)c1
Qu. Rank the 4 compounds: largest LC retention time first, smallest last. Put the labels in the requested order and write them down.
Ans. a, c, b, d

1. O=C(O)c1ccccc1O
2. COC(=O)c1cc(O)c(O)c(O)c1 [Methyl 3,4,5-trihydroxybenzoate]
3. O=C(O)CC(=O)O
Qu. Rank the 3 compounds: largest LC retention time first, smallest last. Put the labels in the requested order and write them down.
Ans. 1, 2, 3
(1: 18.9 min, 2: 8.64 min, 3: 1.52 min)

1. COc1cc(C(=O)O)ccc1O
2. COC(=O)c1ccc(O)c(O)c1 [Methyl 3,4-dihydroxybenzoate]
Qu. Between item 1 and item 2 , which reported LC retention time is smaller? Pick one; state its label.
Ans. 1
(1: 9.34 min, 2: 15.3 min)

###

test-protocol: RP, Waters ACQUITY UPLC HSS T3, 100 × 2.1 mm, 1.8 µm, 30 °C, 0.4 mL/min, estimated dead time 0.55 min; A: water + 0.1% formic acid, pH 3; B: acetonitrile + 0.1% formic acid, pH 3; gradient (min/%B) 0/0 2/0 15/100 22/100 22.1/0 26/0
conditions: stereoisomer not certain
observation-type: LC retention time (min)

Study these solved cases before continuing.
COc1ccc(-c2coc3cc(O)ccc3c2=O)cc1 [Formononetin]: 12.4
Oc1cc(O)c2c(c1)OC(c1ccc(O)c(O)c1)C(O)C2c1c(O)cc(O)c2c1OC(c1ccc(O)c(O)c1)C(O)C2 (stereo not drawn) [Procyanidin B2]: 8.35
CC(C)C1NC(=O)C2CCCN2C1=O (stereo not drawn) [Cyclo(Pro-Val)]: 8.07
O=c1cc(-c2ccc(O)cc2)oc2c(C3OC(CO)C(O)C(O)C3O)c(O)cc(O)c12 (stereo not drawn) [Vitexin]: 9.12
COc1cc(CC(=O)O)ccc1O [Homovanillic acid]: 8.67
O=C1CC(c2ccc(O)c(O)c2)Oc2cc(O)cc(O)c21 (stereo not drawn) [Eriodictyol]: 10.9
CN1CCCCC1C(=O)O (stereo not drawn) [1-Methylpiperidine-2-carboxylic acid]: 1.1
CC12CCc3occc3C1CCC13CC(CCC12)C(O)(CO)C3 (stereo not drawn) [Cafestol]: 13.9
COc1ccc(-c2coc3cc(O)cc(O)c3c2=O)cc1 [Biochanin A]: 13.5
Oc1cc(O)c2c(c1)OC(c1cc(O)c(O)c(O)c1)C(O)C2 (single isomer, unassigned; (-)) [(-)-Epigallocatechin]: 7.91

a. O=C(O)c1cc(O)c(O)c(O)c1 [Gallic acid]
b. O=c1cc(-c2ccc(O)c(O)c2)oc2cc(O)cc(O)c12 [Luteolin]
Qu. Between item a and item b , which reported LC retention time is smaller? Pick one; state its label.
Ans. a

The values you see were collected from the RepoRT retention time repository (doi:10.1016/j.foodchem.2021.129757).
